tested on: MS2 coat protein; experiment: apparent KD of MS2 coat protein; designed switch direction (-1 OFF switch, 1 ON switch): -1; higher = weaker reporter binding; settings: Eterna round: R98; input ligand: FMN 200 uM
OBSERVATION_TYPE: apparent KD of MS2 coat protein (nM)
Unit nM implied. Number only.

{"columns": ["RESIDUE_SEQUENCE", "STUDY_SYSTEM", "UNIT_ABBREVIATION", "apparent KD of MS2 coat protein"],
 "data": [
  ["ACAUGGAAUCGAGGAUAUGACGCGGAAACGAAGUCAGAAGGCGAAAAUUUAACUCGAUAAUACAUGAGGAUCACCCAUGUAAUU [AK-NGROCr2-ExNG1-3]", "MS2 coat protein", "nM", 24.6],
  ["UCGAACGGAAACAAAGUCGAUAGACAUGAGGAUCACCCAUGUCAGGAUAUGCCUACUAAAAGUAGGCAGAAGGGACGCGUUCGA [Contusion 7 - Jieux - Exclusion NG 3]", "MS2 coat protein", "nM", 18]
]}

Now for another entry.
// field: apparent KD of MS2 coat protein; key: GCACUGGAUGUAGGAUAUCAGGACGAUAAGUCCUGAGAAGGACAUGAGGAUCACCCAUGUGAUAAUACCAGUGCAAAUAAUAUA [Denovo Exng1 26] ; value = 119

---

system: MS2 coat protein; assay: apparent KD of MS2 coat protein; designed switch direction (-1 OFF switch, 1 ON switch): -1; higher = weaker reporter binding; conditions: Eterna round: R95; input ligand: microRNA oligo, concentration not stated
Tag: Fulfilled if measured apparent KD of MS2 coat protein is not below 0.03 µM, Not fulfilled if it is.

Illustrative cases are given below, each with its answer.
{"columns": ["RESIDUE_SEQUENCE", "CLASSIFICATION"],
 "data": [
  ["GUUAGUUAAGGAUAUACAGGGAGCCGCGGCGUCUCGCCGCAACAUGAGGAUCACCCAUGUAGAAGGUAGCCAUU [JL ViennaUCT Enbibi mod 1] (puzzle: Exclusion 2)", "Not fulfilled"],
  ["GACUGCCGAGGAUAUACAUGAGGAUCACCCAUGUGCUUCAGCAUUUUUUAAUGCAUGGGUAGAAGGCGGUAGUU [LRO-Excl3-14] (puzzle: Exclusion 3)", "Fulfilled"],
  ["CCGGAAAUGCAGGAUAUCGUAUCGGAUACGAUACGAGAAGGGUAUACAUGAGGAUCACCCAUGUGUCCUACCGG [Fiskers Ex 6 - 49] (puzzle: Exclusion 6)", "Not fulfilled"],
  ["AAGUACCGUCACGAAAGUGAUGGUACAACAAGCAUGUAAACAUGAGGAUCACCCAUGUCCUCAUAUGCUCGUCUUAU [Sensor 3 - 63] (puzzle: Sensor v3, turn-off variant 2)", "Fulfilled"]
]}

Determine whether measured apparent KD of MS2 coat protein meets or exceeds 0.03 µM for GCAUUGAGUGUGAGGAUAUGCUGGUCAUAAGAUCAGCAGAAGGCACAUGAGGAUCACCCAUGUGAAAACAAUGC [Mat - Exclusion 4 - JL Mod - D66] (puzzle: Brourd's mod of Exclusion 4)
Not fulfilled

---

tested on: K4 kissing-loop RNA reporter; assay: apparent KD of K4 kissing-loop reporter; higher = weaker reporter binding; settings: Eterna round: R107; input ligand: theophylline 20 uM;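 note: bound reporter read as fluorescence of individual clusters on recovered sequencing chips by microscopy, with normalized cluster intensities fitted with a binding model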
# maps each entry to its apparent KD of K4 kissing-loop reporter
Numbers only here, please. The scale is nM.

Answered cases to consult:
{"columns": ["RESIDUE_SEQUENCE", "UNIT_ABBREVIATION", "apparent KD of K4 kissing-loop reporter"],
 "data": [
  ["AGACUUCACCGAAGGAGCGACGUGGCCUAGUGAUGUUAGGUACGAGAGAAAUCUCGUAUACGUCAGGUAGGUCGCGGUGAAGUCA [Omei KL Arginine B SS C v8]", "nM", 721],
  ["CAAAUAUGCGGUAGGUUCAAGCGCUGGGAAGGAGCGCAGAUGACUGCAGGUAGGUCGCCCAGUGAUGUUGGGCUUUCCACCUAUG [Esisusa]", "nM", 136],
  ["UGGAGUUGACGAAAAGUCAACUCCUGAGAUACCAGUGACGAAAGUCACCCUUGGCAGCUCACUGGCAGUGAUGUUGCGCGAUAAA [#23 K4 Theophylline A Same State]", "nM", 367],
  ["AUUUAUUCGUACUACUAGUGAUGUUAGUAACGAGGACCGGUACGGCCGCCACUCGAUUUGGCGAUUUUGUAUUUUUUAUUCUAUA [JR_SSTryptoA_Sub011]", "nM", 328],
  ["AAAUUUAAUAUAUUUAAUUAAUUAUGUGAUACCAGACAUUAAUAAGUCCCUUGGCAGCACAAUGCAGUGAUGUUGCUUAUAAUAA [JR_SSTheophyA_Sub010]", "nM", 138],
  ["AAUAAUGAUGUUUAGGAAAGUAAAAUGGAAGGAGCGUGCGAAAGCACAGGUAGGUCGCCAGUGAUGUUGGAACCUGAGCAUCAAA [#SwitchBubble 19 #K4Late]", "nM", 925]
]}

Please examine the following record next.
Memo: CGGAUGUAGUGAUGUUAUAUUAGAUGUAGACGAGGACCGGUACGGCCGCCACUCGUAACGGCUGCUAGCGCGUUGCGAGGUGUGC [ExTryptoA.Cl] , reported apparent KD of K4 kissing-loop reporter: 570

---

tested on: MS2 coat protein; experiment: apparent KD of MS2 coat protein; designed switch direction (-1 OFF switch, 1 ON switch): -1; higher = weaker reporter binding; details: input ligand: none
OBSERVATION_TYPE: apparent KD of MS2 coat protein (nM)
State the answer as a number, implicitly in nM.

{"columns": ["RESIDUE_SEQUENCE", "OBS_VALUE"],
 "data": [
  ["UUGUUUGUAGUGAGGAUAUCGUUGAGGAAGAGGAUCGAGAAGGCACAUGAGGAUCACCCAUGUUAGAUGUGGUU [JR_BMOE4_Sub082] (Eterna round: R96, puzzle: Brourd's mod of Exclusion 4)", 161]
]}

Entry under test: UGUUGUCGCGCAGGAUAUGAGGAUCACCCAUAUAAGGAUAUCGAAAGAGAAGGUCUGAGGAUUACCCAGAAGGGCGGGACAACU [pwkr exNG2 2xF5 2xFMN.30] (Eterna round: R96, puzzle: Exclusion NG 2) . Its apparent KD of MS2 coat protein was 70.1

---

Each entry below carries its reported apparent KD of MS2 coat protein.
tested on: MS2 coat protein; experiment: apparent KD of MS2 coat protein; designed switch direction (-1 OFF switch, 1 ON switch): 1; higher = weaker reporter binding; conditions: input ligand: microRNA oligo, concentration not stated
Please reply with the bare figure in nM and do not write the unit itself.

// known answers, use as guide
{"columns": ["RESIDUE_SEQUENCE", "STUDY_SYSTEM", "UNIT_ABBREVIATION", "apparent KD of MS2 coat protein"],
 "data": [
  ["UGUUGUAUUACAGGAUAUCUAUUGUUGUUAUUUAGAGAAGGGUAUUCACAUGAGGAUCACCCAUGUAUAUACGAGGAAGUUGUG [JMF's solution 75] (Eterna round: R96, puzzle: Same State NG 1)", "MS2 coat protein", "nM", 41.9],
  ["GGUAGGUUACUACCAAACUACAUGAGGAUCACCCAUGUGUGGGAGGAUAUGGUACCUAUUUGGUACCAGAAGGUCCAAUUAAUU [Fiskers NG3ss - 6] (Eterna round: R96, puzzle: Same State NG 3)", "MS2 coat protein", "nM", 106],
  ["GUAGAACAUGAGGAUCACCCAUGUGAAGACGCAUGAGGAUAUAUACGUAAAUAGCAUACGAUAGAAGGCAUGAUAA [JR_SS001_Sub1703] (Eterna round: R96, puzzle: Same State 1)", "MS2 coat protein", "nM", 40.6],
  ["UUAGCGACGGAAGGAUAUUGGACGCUAACAUGAGGAUCACCCAUGUAGAGGUCCUACCAACAGCGCAAGAAGGUCCGAUCAGCA [Eternabot solution 13] (Eterna round: R96, puzzle: Same State NG 2)", "MS2 coat protein", "nM", 8.94]
]}

sequence UAAAAUAACACAGGAUAUGCAGACAACUCGUCGGCAGAAGGGUGAGACAUGAGGAUCACCCAUGUAAAAUAAGGGCGCCGCCCG [Diatera] (Eterna round: R96, puzzle: Same State NG 1) , apparent KD of MS2 coat protein observed: 219

Sure, the documented apparent KD of MS2 coat protein for CUGAGCGAUCUAGGAUAUCACGUCGUUUAGACGUGAGAAGGAGAUCAUAACAUGAGGAUCACCCAUGUAUUACAUGAAGCUCAG [SSNG1/6-A3] (Eterna round: R96, puzzle: Same State NG 1) is 16.9

The sequence listed as UAUGACUUACAAGGAUAUUAAUGACAUGAGGAUCACCCAUGUGGCUGUGUAUGUUAGAUAAGCAUUAAGAAGGUGUGCGAGUCU [JR_SSNG2_Sub097] (Eterna round: R96, puzzle: Same State NG 2) has a reported apparent KD of MS2 coat protein of 23.2

The reported value for UCGGGCGUACUUGCUGACAUGAGGAUCACCCAUGUCCUUGGGAAGGAUAUGGUUCCGUUUCGGUUCCAGAAGGUCCUGGCUGCU [salish99_SSNG3_r04_317] (Eterna round: R96, puzzle: Same State NG 3) in terms of apparent KD of MS2 coat protein is 42.6

apparent KD of MS2 coat protein measured on AUCCCAUCGGGAGGAUAUGGAACCUUAUUGGUUCCAGAAGGUCCAACAUGAGGAUCACCCAUGUGGGAGUGGUCUAAUGACCAC [Fiskers NG1ss - 29] (Eterna round: R96, puzzle: Same State NG 1) = 272
